- assayProtocol: Cytotoxicity against human RD cells infected with CA16 incubated for 3 days by CellTiter 96 luminescent cell viability assay
- Format: toxicity, cell-based
- testConditions: time 3 day
Catalogue of log10 CC50 at 72 h values
Remember, log10 of CC50 at 72 h, in nM.

O=C(c1ccc(C(F)(F)F)cc1O)c1[nH]c(Cl)c(Cl)c1-n1c(C(=O)c2ccc(C(F)(F)F)cc2O)cc(Cl)c1Cl ... 2.40

# input Looking for the measured log10 CC50 at 72 h of O=C(c1ccc(C(F)(F)F)cc1O)c1[nH]c(Cl)c(Cl)c1-n1c(C(=O)c2ccc(C(F)(F)F)cc2O)cc(Cl)c1Sc1ccccn1 , can you help?
# output 2.36

# input Looking for the measured log10 CC50 at 72 h of Cc1nnc(Sc2c(Cl)cc(C(=O)c3ccc(C(F)(F)F)cc3O)n2-c2c(C(=O)c3ccc(C(F)(F)F)cc3O)[nH]c(Cl)c2Cl)s1 , can you help?
# output 3.42

# input Looking for the measured log10 CC50 at 72 h of Cn1nnnc1Sc1c(Cl)cc(C(=O)c2ccc(C(F)(F)F)cc2O)n1-c1c(C(=O)c2ccc(C(F)(F)F)cc2O)[nH]c(Cl)c1Cl , can you help?
# output 3.63

* * *

- Tested on: Coxsackievirus A16
- assayProtocol: Antiviral activity against CA16 infected in human RD cells incubated for 3 days by CellTiter 96 luminescent cell viability assay
- Type: functional, organism-based
- testConditions: Enterovirus A, 72 h
observationType: IC50

Study these solved cases before continuing.
O=C(c1ccc(C(F)(F)F)cc1O)c1[nH]c(Cl)c(Cl)c1-n1c(C(=O)c2ccc(C(F)(F)F)cc2O)cc(Cl)c1SCc1cccnc1 ... 100 nM
O=C(c1ccc(C(F)(F)F)cc1O)c1[nH]c(Cl)c(Cl)c1-n1c(C(=O)c2ccc(C(F)(F)F)cc2O)cc(Cl)c1Sc1ccccn1 ... 10 nM
Cn1nnnc1Sc1c(Cl)cc(C(=O)c2ccc(C(F)(F)F)cc2O)n1-c1c(C(=O)c2ccc(C(F)(F)F)cc2O)[nH]c(Cl)c1Cl ... 960 nM
O=C(c1ccc(C(F)(F)F)cc1O)c1[nH]c(Cl)c(Cl)c1-n1c(C(=O)c2ccc(C(F)(F)F)cc2O)cc(Cl)c1Sc1nc2cccnc2[nH]1 ... 5900 nM
O=C(c1ccc(C(F)(F)F)cc1O)c1[nH]c(Cl)c(Cl)c1-n1c(C(=O)c2ccc(C(F)(F)F)cc2O)cc(Cl)c1Sc1cccc[n+]1[O-] ... 1070 nM
O=C(c1ccc(C(F)(F)F)cc1O)c1[nH]c(Cl)c(Cl)c1-n1c(C(=O)c2ccc(C(F)(F)F)cc2O)cc(Cl)c1Cl ... 10 nM

Now let's try a different one.
# input Looking for the measured IC50 of O=C(c1ccc(C(F)(F)F)cc1O)c1[nH]c(Cl)c(Cl)c1-n1c(C(=O)c2ccc(C(F)(F)F)cc2O)cc(Cl)c1SCc1ccccn1 , can you help?
# output 30 nM

* * *

- assayProtocol: Selectivity index, ratio of CC50 for […] to IC50 for YFV-17D infected in […]
- Assay type: toxicity, cell-based
- testConditions: read-out: Ratio CC50/IC50
observationType: selectivity ratio
Kindly provide the number alone.

Study these solved cases before continuing.
O=C(c1ccc(C(F)(F)F)cc1O)c1[nH]c(Cl)c(Cl)c1-n1c(C(=O)c2ccc(C(F)(F)F)cc2O)cc(Cl)c1Sc1cccc[n+]1[O-] ... 2.58
O=C(c1ccc(C(F)(F)F)cc1O)c1[nH]c(Cl)c(Cl)c1-n1c(C(=O)c2ccc(C(F)(F)F)cc2O)cc(Cl)c1Sc1nc2cccnc2[nH]1 ... 0.98
O=C(c1ccc(C(F)(F)F)cc1O)c1[nH]c(Cl)c(Cl)c1-n1c(C(=O)c2ccc(C(F)(F)F)cc2O)cc(Cl)c1SCCc1ccccn1 ... 1.07
O=C(c1ccc(C(F)(F)F)cc1O)c1[nH]c(Cl)c(Cl)c1-n1c(C(=O)c2ccc(C(F)(F)F)cc2O)cc(Cl)c1Sc1cnccn1 ... 1.45
Cc1nnc(Sc2c(Cl)cc(C(=O)c3ccc(C(F)(F)F)cc3O)n2-c2c(C(=O)c3ccc(C(F)(F)F)cc3O)[nH]c(Cl)c2Cl)s1 ... 2.02

# input Looking for the measured selectivity ratio of O=C(c1ccc(C(F)(F)F)cc1O)c1[nH]c(Cl)c(Cl)c1-n1c(C(=O)c2ccc(C(F)(F)F)cc2O)cc(Cl)c1Sc1nc2ccccc2[nH]1 , can you help?
# output 1.33

* * *

Catalogue of selectivity ratio values
- assayProtocol: Selectivity index, ratio of CC50 for human RD cells to IC50 for CA16 infected in human RD cells
- Assay type: toxicity, cell-based
- testConditions: read-out: Ratio CC50/IC50
Kindly provide the number alone.

Study these solved cases before continuing.
O=C(c1ccc(C(F)(F)F)cc1O)c1[nH]c(Cl)c(Cl)c1-n1c(C(=O)c2ccc(C(F)(F)F)cc2O)cc(Cl)c1SCc1cccnc1 ... 8.61
O=C(c1ccc(C(F)(F)F)cc1O)c1[nH]c(Cl)c(Cl)c1-n1c(C(=O)c2ccc(C(F)(F)F)cc2O)cc(Cl)c1Sc1nc2ccccc2o1 ... 12
O=C(c1ccc(C(F)(F)F)cc1O)c1[nH]c(Cl)c(Cl)c1-n1c(C(=O)c2ccc(C(F)(F)F)cc2O)cc(Cl)c1Cl ... 24.6
O=C(c1ccc(C(F)(F)F)cc1O)c1[nH]c(Cl)c(Cl)c1-n1c(C(=O)c2ccc(C(F)(F)F)cc2O)cc(Cl)c1Sc1nc2cccnc2[nH]1 ... 3.37
O=C(c1ccc(C(F)(F)F)cc1O)c1[nH]c(Cl)c(Cl)c1-n1c(C(=O)c2ccc(C(F)(F)F)cc2O)cc(Cl)c1SCc1ncccn1 ... 10.4
O=C(c1ccc(C(F)(F)F)cc1O)c1[nH]c(Cl)c(Cl)c1-n1c(C(=O)c2ccc(C(F)(F)F)cc2O)cc(Cl)c1Sc1nc2ccccc2s1 ... 11.3
Cc1nnc(Sc2c(Cl)cc(C(=O)c3ccc(C(F)(F)F)cc3O)n2-c2c(C(=O)c3ccc(C(F)(F)F)cc3O)[nH]c(Cl)c2Cl)s1 ... 9.43
O=C(c1ccc(C(F)(F)F)cc1O)c1[nH]c(Cl)c(Cl)c1-n1c(C(=O)c2ccc(C(F)(F)F)cc2O)cc(Cl)c1Sc1nc2ccccc2[nH]1 ... 5

# input Looking for the measured selectivity ratio of O=C(c1ccc(C(F)(F)F)cc1O)c1[nH]c(Cl)c(Cl)c1-n1c(C(=O)c2ccc(C(F)(F)F)cc2O)cc(Cl)c1Sc1nnnn1CCO , can you help?
# output 6.1

# input Looking for the measured selectivity ratio of O=C(c1ccc(C(F)(F)F)cc1O)c1[nH]c(Cl)c(Cl)c1-n1c(C(=O)c2ccc(C(F)(F)F)cc2O)cc(Cl)c1Sc1ncccn1 , can you help?
# output 17.8

* * *

Catalogue of CC50 at 168 h values
- assayProtocol: Cytotoxicity against […] infected with YFV-17D incubated for 7 days by CellTiter 96 luminescent cell viability assay
- Type: toxicity, cell-based
- testConditions: time 7 day
Unit nM implied. Number only.

Study these solved cases before continuing.
O=C(c1ccc(C(F)(F)F)cc1O)c1[nH]c(Cl)c(Cl)c1-n1c(C(=O)c2ccc(C(F)(F)F)cc2O)cc(Cl)c1Sc1cccs1 ... 230
O=C(c1ccc(C(F)(F)F)cc1O)c1[nH]c(Cl)c(Cl)c1-n1c(C(=O)c2ccc(C(F)(F)F)cc2O)cc(Cl)c1SCCc1ccccn1 ... 610

# input Looking for the measured CC50 at 168 h of O=C(c1ccc(C(F)(F)F)cc1O)c1[nH]c(Cl)c(Cl)c1-n1c(C(=O)c2ccc(C(F)(F)F)cc2O)cc(Cl)c1Sc1ccccn1 , can you help?
# output 230

* * *

- assayProtocol: Selectivity index, ratio of CC50 for human RD cells to IC50 for CA16 infected in human RD cells
- Format: toxicity, cell-based
- testConditions: read-out: Ratio CC50/IC50
observationType: selectivity ratio
Kindly provide the number alone.

O=C(c1ccc(C(F)(F)F)cc1O)c1[nH]c(Cl)c(Cl)c1-n1c(C(=O)c2ccc(C(F)(F)F)cc2O)cc(Cl)c1Sc1ccccn1 ... 22.8

# input Looking for the measured selectivity ratio of O=C(c1ccc(C(F)(F)F)cc1O)c1[nH]c(Cl)c(Cl)c1-n1c(C(=O)c2ccc(C(F)(F)F)cc2O)cc(Cl)c1Sc1cccc[n+]1[O-] , can you help?
# output 7.95

# input Looking for the measured selectivity ratio of O=C(c1ccc(C(F)(F)F)cc1O)c1[nH]c(Cl)c(Cl)c1-n1c(C(=O)c2ccc(C(F)(F)F)cc2O)cc(Cl)c1Sc1cccs1 , can you help?
# output 12.2

# input Looking for the measured selectivity ratio of O=C(c1ccc(C(F)(F)F)cc1O)c1[nH]c(Cl)c(Cl)c1-n1c(C(=O)c2ccc(C(F)(F)F)cc2O)cc(Cl)c1Sc1cnccn1 , can you help?
# output 60.9

* * *

- System: Coxsackievirus A16
- assayProtocol: Antiviral activity against CA16 infected in human RD cells incubated for 3 days by CellTiter 96 luminescent cell viability assay
- Type: functional, organism-based
- testConditions: Enterovirus A, 72 h
pIC50: −log10 of the molar value.
Think of 7 as a floor: if pIC50 stands on it or above, it is label 1; beneath it, label 0.

Here are 3 molecules together with their reported answers.
O=C(c1ccc(C(F)(F)F)cc1O)c1[nH]c(Cl)c(Cl)c1-n1c(C(=O)c2ccc(C(F)(F)F)cc2O)cc(Cl)c1SCCc1ccccn1 ... label 1
O=C(c1ccc(C(F)(F)F)cc1O)c1[nH]c(Cl)c(Cl)c1-n1c(C(=O)c2ccc(C(F)(F)F)cc2O)cc(Cl)c1Sc1cccs1 ... label 1
O=C(c1ccc(C(F)(F)F)cc1O)c1[nH]c(Cl)c(Cl)c1-n1c(C(=O)c2ccc(C(F)(F)F)cc2O)cc(Cl)c1Sc1ncccn1 ... label 1

# input Determine whether this molecule has pIC50 no lower than 7: Cc1nnc(Sc2c(Cl)cc(C(=O)c3ccc(C(F)(F)F)cc3O)n2-c2c(C(=O)c3ccc(C(F)(F)F)cc3O)[nH]c(Cl)c2Cl)s1
# output label 0

# input Determine whether this molecule has pIC50 no lower than 7: O=C(c1ccc(C(F)(F)F)cc1O)c1[nH]c(Cl)c(Cl)c1-n1c(C(=O)c2ccc(C(F)(F)F)cc2O)cc(Cl)c1Sc1nc2ccccc2[nH]1
# output label 0

# input Determine whether this molecule has pIC50 no lower than 7: O=C(c1ccc(C(F)(F)F)cc1O)c1[nH]c(Cl)c(Cl)c1-n1c(C(=O)c2ccc(C(F)(F)F)cc2O)cc(Cl)c1Sc1cnccn1
# output label 0
